test: qHTS of pediatric cancer cell lines to identify multiple opportunities for drug repurposing: Confirmatory screen for Saos-2 cells (AID 1347127); conditions: Saos-2 osteosarcoma cell viability; series mostly up to 45.9 µM; further: nearly all actives have a fitted effect of over 60% in size; further: potency means the concentration at half of the fitted maximal effect
Records with an inconclusive call do not appear. Active and inactive are the calls of the source. The call rests on the fitted dose curve; in most records, active means well fitted cell-killing curve with a large enough effect; inconclusive means small, poorly fitted or top-dose-only effect, or effect the other way; inactive means no such curve, though single readings can be large or run the other way.

compound: CC(=O)[O][Hg][c]1ccccc1
Potency: 1170 nM (active)
--
compound: Cc1ccccc1-n1c(Cn2cnc3c(N)ncnc32)nc2cccc(C)c2c1=O
Potency: inactive
--
compound: C[C@@]12OC(=O)[C@]1([C@@H](O)[C@@H]1C=CCCC1)NC(=O)[C@H]2CCCl
Potency: 1170 nM (active)
--
compound: COc1cc([C@@H]2c3cc4c(cc3[C@@H](O)C3COC(=O)C32)OCO4)cc(OC)c1O (some centres undefined)
Potency: inactive
--
compound: C[C@@H]1O[C@@H](O[C@@H]2C=C3CC[C@@H]4[C@@H](CC[C@]5(C)[C@H](c6ccc(=O)oc6)CC[C@@]45O)[C@@]3(C)CC2)[C@H](O)[C@H](O)[C@H]1O
Potency: 185 nM (active)
--
compound: CCC(=O)OC1CCC2C3CCC4=CC(=O)CC[C@@]4(C)C3CC[C@]12C (some centres undefined)
Potency: inactive
--
compound: CC(=Cc1csc(C)n1)[C@@H]1C[C@H]2O[C@]2(C)CCC[C@H](C)[C@@H](O)[C@@H](C)C(=O)C(C)(C)[C@@H](O)CC(=O)O1
Potency: 13.1 nM (active)
--
compound: CC(=Cc1csc(C)n1)[C@@H]1C[C@H]2O[C@@H]2CCC[C@H](C)[C@@H](O)[C@@H](C)C(=O)C(C)(C)[C@@H](O)CC(=O)O1
Potency: 29.3 nM (active)
--
compound: CC=C(C)C(=O)N[C@@H](c1ccccc1)[C@@H](O)C(=O)O[C@H]1C[C@@]2(O)[C@@H](OC(=O)c3ccccc3)[C@@H]3[C@]4(OC(C)=O)CO[C@@H]4C[C@H](O)[C@@]3(C)C(=O)[C@H](OC(C)=O)C(=C1C)C2(C)C
Potency: 41.4 nM (active)
--
compound: Cc1[nH]nc2ccc(-c3cncc(OC[C@@H](N)Cc4c[nH]c5ccccc45)c3)cc12
Potency: 2610 nM (active)
--
compound: CC1=C(O)C(=O)C=C2C1=CC=C1[C@@]2(C)CC[C@@]2(C)[C@@H]3C[C@](C)(C(=O)O)CC[C@]3(C)CC[C@]12C
Potency: 3290 nM (active)
--
compound: O=C(O)CCCOc1ccc(Cl)cc1Cl
Potency: inactive
--
compound: CC(C)[C@]12O[C@@H]1[C@@H]1O[C@]13[C@]1(O[C@H]1C[C@@H]1C4=C(CC[C@@]13C)C(=O)OC4)[C@H]2O
Potency: 46.5 nM (active)
--
compound: CC[C@@H]1[C@@H](C)O[C@@](O)([C@@H](C)[C@H](O)[C@H](C)[C@H]2OC(=O)C=CC=C[C@@H](C)[C@@H]([C@@H](C)[C@@H](O)[C@H](C)[C@@]3(O)C[C@H](O[C@H]4C[C@H](O)[C@H](O)[C@H](C)O4)[C@H](CC)[C@@H](C)O3)OC(=O)C=CC=C[C@@H]2C)C[C@H]1O[C@H]1C[C@H](O)[C@H](O)[C@H](C)O1
Potency: inactive

* * *

experiment: qHTS of pediatric cancer cell lines to identify multiple opportunities for drug repurposing: Primary screen for OHS-50 cells (AID 1347103); settings: OHS-50 osteosarcoma viability, CellTiter-Glo luminescence, 48 h; series mostly up to 57.3 µM; further: nearly all actives have a fitted effect of over 40% in size; further: potency means the concentration at half of the fitted maximal effect
Results filed as inconclusive are left out. The source made the active and inactive calls. Calls come from the whole dose curve; as a rule, active = well fitted cell-killing curve with a large enough effect; inconclusive = small, poorly fitted or top-dose-only effect; inactive = no such curve, though single readings can be large or run the other way.
measurement_type: Potency

compound: NC1CC1c1ccccc1 (stereo not given)
reported_value: inactive
//
compound: Cc1[nH]nc2ccc(-c3cncc(OC[C@@H](N)Cc4c[nH]c5ccccc45)c3)cc12
reported_value: 1.53 µM (active)
//
compound: CC(=O)O[C@@]12CO[C@H]1C[C@H](O)[C@@]1(C)C(=O)[C@H](O)C3=C(C)[C@@H](O)C[C@@](O)([C@@H](OC(=O)c4ccccc4)[C@@H]21)C3(C)C
reported_value: 1.72 µM (active)
//
compound: Oc1ccc2c3c1O[C@H]1[C@@H](O)C=C[C@H]4[C@@H](C2)NCC[C@@]341
reported_value: inactive
//
compound: COCC1(CO)C(=O)C2CCN1CC2 (stereo not given)
reported_value: 3.85 µM (active)
//
compound: CCOC(=O)Nc1ccc(NCc2ccc(F)cc2)cc1N
reported_value: inactive
//
compound: Cc1ccc(Cl)c(O)c1
reported_value: inactive
//
compound: CCOP(=O)(OCC)C(C)NC(=O)N(CCCl)N=O (stereo not given)
reported_value: inactive
//
compound: ClC1=C(Cl)[C@]2(Cl)[C@@H]3[C@@H]4C[C@@H]([C@H]5O[C@@H]45)[C@@H]3[C@@]1(Cl)C2(Cl)Cl
reported_value: 28.2 µM (active)
//
compound: CCCCCCCCc1ccc(O)cc1
reported_value: 25.4 µM (active)

* * *

assay: qHTS for Inhibitors of the Functional Ribonucleoprotein Complex (vRNP) of Lymphocytic Choriomeningitis Arenaviruses (LCMV): Viability assay - alamar blue signal for LCMV Primary Screen (AID 1347085); settings: alamar blue viability counter-screen, LCMV vRNP screen cells; series mostly up to 57.5 µM; further: nearly all actives have a fitted effect of over 80% in size; further: potency means the concentration at half of the fitted maximal effect
Inconclusive results are not listed. The source made the active and inactive calls. The call rests on the fitted dose curve; tested in HEK293 reporter line.

molecule: COc1nn(CSP(=S)(OC)OC)c(=O)s1
Potency: inactive
//
molecule: C[N+]1(C)C2CCC1CC(OC(=O)C(CO)c1ccccc1)C2 (configuration not stated)
Potency: inactive
//
molecule: CCC(=C(c1ccccc1)c1ccc(OCCN(C)C)cc1)c1ccccc1
Potency: inactive
//
molecule: CC1=C(/C=C/C(C)=C/C=C/C(C)=C/C(=O)O)C(C)(C)CCC1
Potency: inactive
//
molecule: O=C(O)c1ccc2c(c1)nc(Nc1cccc(Cl)c1)c1ccncc12
Potency: inactive
//
molecule: COc1cc2nc(N3CCCN(C)CC3)nc(NC3CCN(Cc4ccccc4)CC3)c2cc1OC
Potency: 21.7 µM (active)
//
molecule: CCCCOC(=O)c1ccccc1C(=O)OCc1ccccc1
Potency: inactive
//
molecule: CC(C)(C)C(O)/C=C/c1ccc2c(c1)OCO2 (configuration not stated)
Potency: inactive
//
molecule: Cc1cc(Nc2cc(N3CCN(C)CC3)nc(Sc3ccc(NC(=O)C4CC4)cc3)n2)n[nH]1
Potency: 38.5 µM (active)
//
molecule: NCCS
Potency: inactive
//
molecule: NC(=O)c1ccc(I)c([N+](=O)[O-])c1
Potency: inactive
//
molecule: CCC(=O)N1CCN(c2ccc(-n3c(=O)ccc4cnc5ccc(-c6cnc7ccccc7c6)cc5c43)cc2C(F)(F)F)CC1
Potency: 0.0273 µM (active)
//
molecule: CCCCCN(CCC12CC3CC(CC(C3)C1)C2)C(=O)NCCCc1ccncc1
Potency: inactive
//
molecule: CC(C)(C)c1cc(C(=O)O)c(NC(=O)Nc2ccc3[nH]ncc3c2)s1
Potency: inactive
//
molecule: CN1CCN(c2ccc([N+](=O)[O-])c3no[n+]([O-])c23)CC1
Potency: inactive
//
molecule: S=C(NCc1ccc2c(c1)OCO2)N1CCN(c2ncnc3c2oc2ccccc23)CC1
Potency: inactive
//
molecule: CCC=CC[C@H]1C(=O)CC[C@@H]1CC(=O)OC
Potency: inactive
//
molecule: COc1ccc(-c2ccc3c(N4CCOCC4)nc(N4C[C@@H](C)O[C@@H](C)C4)nc3n2)cc1CO
Potency: 1.09 µM (active)
//
molecule: CCCCC/C(C=O)=C\c1ccccc1
Potency: inactive
//
molecule: NC(=O)c1c(OCc2c(F)cc(Br)cc2F)nsc1NC(=O)NCCCCN1CCCC1
Potency: inactive
//
molecule: CNCc1ccc(-c2[nH]c3cc(F)cc4c3c2CCNC4=O)cc1
Potency: inactive
//
molecule: CC(C)(C)c1cc(C(C)(C)C)c(NC(=O)c2c[nH]c3ccccc3c2=O)cc1O
Potency: inactive

* * *

assay: qHTS Screen of the MIPE 4.0 Collection Against Ewings Sarcoma (TC32) (AID 1259256); conditions: TC32 Ewing sarcoma viability, CellTiter-Glo, 48 h; series mostly up to 45.8 µM; further: nearly all actives have a fitted effect of over 45% in size
Inconclusive results are not listed. Active and inactive are the calls of the source. Calls follow the shape of the dose curve; as a rule, active = well fitted inhibition curve with a large enough effect; inconclusive = small, poorly fitted or top-dose-only effect; inactive = no such curve, though single readings can be large or run the other way.
Possible outcomes: active, inactive

molecule: CC(C)N[C@@H]1CCn2c(=O)[nH]c3cccc(c32)[C@@H]1O
group_label: active

molecule: C#C[C@]1(O)C=C[C@@H]2[C@@H]3CCC4=CC(=O)CC[C@@H]4[C@H]3CC[C@@]21CC
group_label: inactive

molecule: C[C@@H]1CC[C@@]2(OC1)O[C@H]1C[C@H]3[C@@H]4CC=C5C[C@@H](O[C@@H]6O[C@H](CO)[C@@H](O[C@@H]7O[C@@H](C)[C@H](O)[C@@H](O)[C@@H]7O)[C@H](O)[C@@H]6O[C@@H]6O[C@@H](C)[C@H](O)[C@@H](O)[C@@H]6O)CC[C@]5(C)[C@@H]4CC[C@]3(C)[C@@H]1[C@H]2C
group_label: active

molecule: NC1CC1c1ccccc1 (stereo not given)
group_label: inactive

molecule: O=S(=O)(CC1CS1)c1ccc(Oc2ccccc2)cc1 (stereo not given)
group_label: active
